The reported measurements were obtained from patent US20240059769A1.

# measured_target: T1, recombinant human IL-13 (human, UniProt P35225 35-146)
# T1 construct: also called rh-IL-13; hIL-13
# T1 sequence (P35225 35-146 limits assumed): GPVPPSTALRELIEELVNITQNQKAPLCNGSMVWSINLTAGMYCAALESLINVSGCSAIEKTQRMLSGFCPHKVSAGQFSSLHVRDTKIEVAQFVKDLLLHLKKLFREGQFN
# assay_explanation: SPR
quantity_measured: Kd

// below: answered binders
IN: Bench note: what Kd did BDG38.075 (antibody, V domains shown, IgG1) VH: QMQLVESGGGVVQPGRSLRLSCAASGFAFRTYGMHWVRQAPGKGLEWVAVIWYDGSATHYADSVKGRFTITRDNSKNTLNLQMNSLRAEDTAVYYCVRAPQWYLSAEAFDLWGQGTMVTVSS VL: SYVLTQPPSVSVAPGETATITCGGNLIGAYLVHWYQQKPGQAPVLVIYDDVDRPARIPERFSGSNSGNTATLTISRVEAGDEADYYCQVWDHDTNTMVFGGGTKLTVL show?
OUT: 0.0318 nM

IN: Another: BDG33.023 (antibody, V domains shown, standard IgG; also called BGD33.023; BDG33.0023) VH: QMQLVESGGGVVQPGRSLRLSCAASGFAFRTYGMHWVRQAPGKGLEWVAVIWYDGSNTHYADSVKGRFTITRDNSKNTLNLQMNSLRAEDTAVYYCARAPQWYLSAEAFDLWGQGTMVTVSS VL: SYVLTQPPSVSVAPGQTARITCGGNLIGSKLVHWYQQKPGQAPVLVVYDDSDRPSRIPERFSGSNSGNTATLTISRVEAGDEADYYCQVWDHSSDHVVFGGGTKLTVL
OUT: 3.01 nM

Next up:
IN: Bench note: what Kd did BDG38.078 (antibody, V domains shown, IgG1) VH: QMQLVESGGGVVQPGRSLRLSCAASGFEFRTYGMHWVRQAPGKGLEWLGVIWYDGSNTHYADSVKGRFTITRDNSKNTLNLQMNSLRVEDTAVYYCVRAPQWYLTAEAFDLWGQGTMVTVSS VL: SYILTQPPSVSVAPGETATITCGGNLIGARLVHWYQQKPGQAPVLVIYDDSDRPSRIPERFSGSNIGNTATLTIERVEAGDEADYYCQVWDYYSDHMVFGGGTKLTVL show?
OUT: 0.0857 nM
